Source of measurements: patent US20220056104A1

Assay Target: T1, Recombinant DR3-Fc (R&D Systems, cat. #943-D3) (UniProt Q93038 25-199, limits assumed)
T1 construct: dimeric MW~92 kDa; also called DR3 receptor; Fc-DR3; not shown: Fc part of the bought fusion
T1 sequence (looked up): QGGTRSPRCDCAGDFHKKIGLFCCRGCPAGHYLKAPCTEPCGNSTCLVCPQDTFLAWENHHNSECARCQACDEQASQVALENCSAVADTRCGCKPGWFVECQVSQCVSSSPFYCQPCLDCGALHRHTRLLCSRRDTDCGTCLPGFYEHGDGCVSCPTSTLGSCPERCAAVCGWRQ
Measurement Notes: ELISA, DR3-Fc immobilized
Method: All ELISA-based measurements were collected in triplicate, and error values report the standard error between measurements. […] Plates were washed three times with TBST. […] 100 μl/well POD Chemiluminescence substrate (Roche, cat #: 11582950001) was added immediately prior to reading plate luminescence using a Molecular Devices M5 plate reader with a delay setting of 100 ms. […]
Observed Property: Rel EC50 (ratio)
Answer in ratio, number only, no unit symbol.

{"columns": ["Binder", "Rel EC50 (ratio)"],
 "data": [
  ["TL1W38 (His-TEV-TL1A L123K) (ligand, also called TL1W38 (L123K)) HHHHHHENLYFQGLKGQEFAPSHQQVYAPLRADGDKPRAHLTVVRQTPTQHFKNQFPALHWEHEKGLAFTKNRMNYTNKFLLIPESGDYFIYSQVTFRGMTSECSEIRQAGRPNKPDSITVVITKVTDSYPEPTQLLMGTKSVCEVGSNWFQPIYLGAMFSLQEGDKLMVNVSDISLVDYTKEDKTFFGAFLL", 1.1]
]}

Kindly review the next binder as well.
Query: Record request: Rel EC50 value, item TL1W92 (His-TEV-TL1A M158Y) (ligand, also called TL1W92 (M158Y)) HHHHHHENLYFQGLKGQEFAPSHQQVYAPLRADGDKPRAHLTVVRQTPTQHFKNQFPALHWEHELGLAFTKNRMNYTNKFLLIPESGDYFIYSQVTFRGYTSECSEIRQAGRPNKPDSITVVITKVTDSYPEPTQLLMGTKSVCEVGSNWFQPIYLGAMFSLQEGDKLMVNVSDISLVDYTKEDKTFFGAFLL
Result: 0.6
